- Read-out: Tissue plasminogen activator (tPA), PLAT (gene 5327)
- Test name: BSK_BE3C_tPA: BioMAP Diversity Plus: BE3C Assay for Tissue plasminogen activator (tPA) Biomarker Activity (AID 2283041)
- Condition: primary human bronchial epithelial cells; actives raise or lower the signal
- Method: BSK_BE3C is a cell-based, multiplexed-readout assay that uses bronchial epithelial cell, a human lung primary cell, with measurements taken at 24 hours after chemical dosing in a 96-well plate.BSK_BE3C_tPA is an assay component measured in the BSK_BE3C assay. It measures tPA antibody related to regulation of gene expression using ELISA technology.Data from the assay component BSK_BE3C_tPA was analyzed into 1 assay endpoint. […]
Calls of active or inactive are those of the source. The calls were made as follows: active = hit-call score of the fitted dose curve at least 0.9, where 1 is the maximum; inactive = score below 0.9.
Just give me one of these, please: active, inactive

Sample answers from the record:
CCCCCCC(C=O)=Cc1ccccc1 : inactive
Cc1cc(Cc2ccc(N)c(C)c2)ccc1N : inactive
Cc1ccc(-c2cc(C(F)(F)F)nn2-c2ccc(S(N)(=O)=O)cc2)cc1 : active
CC(N)=O : inactive
CS(=O)(=O)c1ccc([C@@H](C[C@H]2CCC(=O)C2)C(=O)Nc2cnccn2)cc1Cl : inactive
COC(=O)[C@H]1[C@H]2C[C@@H]3c4[nH]c5cc(OC)ccc5c4CCN3C[C@H]2C[C@@H](OC(=O)c2cc(OC)c(OC)c(OC)c2)[C@@H]1OC : inactive

Please indicate how the test categorized Cc1cc(SC2=C(O)C[C@@](CCc3ccc(N)cc3)(C(C)C)OC2=O)c(C(C)(C)C)cc1CO .
inactive

Please indicate how the test categorized O=C(O)c1[nH]n(-c2ccc(S(=O)(=O)O)cc2)c(=O)c1N=Nc1ccc(S(=O)(=O)O)cc1 .
inactive

Please indicate how the test categorized OCC(CO)n1cnc(-c2ccc(F)cc2)c1-c1ccnc(Oc2ccccc2)n1 .
inactive

Please indicate how the test categorized CC(C)COC(=O)CCCCC(=O)OCC(C)C .
inactive

Please indicate how the test categorized Cc1occc(=O)c1O .
inactive

Please indicate how the test categorized N[C@@H](Cc1c[nH]c2ccccc12)C(=O)O .
inactive

Please indicate how the test categorized Oc1ccccc1O .
inactive

Please indicate how the test categorized CC(COCC(C)OC(=O)c1ccccc1)OC(=O)c1ccccc1 (configuration not stated) .
inactive

Please indicate how the test categorized Nc1nc(=S)c2[nH]cnc2[nH]1 .
inactive

Please indicate how the test categorized O=C(NS(=O)(=O)/C=C/c1cccs1)c1ccc(F)cc1Br .
inactive

Please indicate how the test categorized CO[C@@H]1COCC[C@@H]1N[C@@H]1CC[C@@](C(=O)N2CCc3ncc(C(F)(F)F)cc3C2)(C(C)C)C1 .
inactive

Please indicate how the test categorized CN(C)CCCN1c2ccccc2Sc2ccc(Cl)cc21 .
active

Please indicate how the test categorized O=C1c2c(O)cccc2Cc2cccc(O)c21 .
inactive

Please indicate how the test categorized CCOCCOCCO .
inactive

Please indicate how the test categorized CCCCc1nc2cccnc2n1Cc1ccc(-c2ccccc2-c2nnn[nH]2)cc1 .
inactive

Please indicate how the test categorized O=C1OC(c2ccc(O)cc2)(c2ccc(O)cc2)c2ccccc21 .
inactive

Please indicate how the test categorized CN(C)C(=O)NC1(c2ccccc2)CCN(CCC[C@]2(c3ccc(Cl)c(Cl)c3)CCCN(C(=O)c3ccccc3)C2)CC1 .
inactive

* * *

- Test name: APR_HepG2_MitoticArrest_72hr: Apredica 72-hour HepG2 Assay for Mitotic Arrest (AID 2282918)
- Condition: high-content imaging, actives raise or lower the signal
Active and inactive are the calls of the source. How the source made its calls: active means hit-call score of the fitted dose curve at least 0.9, where 1 is the maximum; inactive means score below 0.9.
Readout kind: AC50

Example entries begin here.
Cc1ccc(-c2cc(C(F)(F)F)nn2-c2ccc(S(N)(=O)=O)cc2)cc1 : inactive
O=C1OC(c2ccc(O)cc2)(c2ccc(O)cc2)c2ccccc21 : 50.9 µM (active)
CC(COCC(C)OC(=O)c1ccccc1)OC(=O)c1ccccc1 (centres undefined) : inactive
CO[C@@H]1COCC[C@@H]1N[C@@H]1CC[C@@](C(=O)N2CCc3ncc(C(F)(F)F)cc3C2)(C(C)C)C1 : inactive
CC(C)OC(=O)C(C)(C)Oc1ccc(C(=O)c2ccc(Cl)cc2)cc1 : inactive

Can you share its AC50? I mean this compound: CC(C)c1cccc(C(C)C)c1NC(=O)NS(=O)(=O)c1cc(C(C)(C)O)co1
inactive

Can you share its AC50? I mean this compound: CC1(C)C(=O)NC(=O)N1CO
inactive

Can you share its AC50? I mean this compound: O=C(O)CC(O)(CC(=O)O)C(=O)O
inactive

Can you share its AC50? I mean this compound: CC(=O)S[C@H](C(=O)N[C@H]1Cc2ccccc2[C@H]2CCC[C@@H](C(=O)O)N2C1=O)C(C)C
inactive

Can you share its AC50? I mean this compound: NC(=Nc1ccccc1)Nc1ccccc1
22.8 µM (active)

* * *

- Read-out: catalase (CAT), CAT (gene 847)
- Test name: LTEA_HepaRG_CAT: Life Technologies and Expression Analysis (LTEA) Assay for catalase (CAT) using HepaRG (AID 2283452)
- Condition: mRNA level, 48 h; actives raise or lower the signal
The source made the active and inactive calls. The calls were made as follows: active = hit-call score of the fitted dose curve at least 0.9, where 1 is the maximum; inactive = score below 0.9.
Readout kind: outcome

CSc1ccc(Oc2ccc(S(N)(=O)=O)cc2CN(C)C)cc1C : inactive
CN(C)C(=O)NC1(c2ccccc2)CCN(CC[C@@]2(c3ccc(F)c(F)c3)CN(C(=O)c3ccccc3)CCO2)CC1 : inactive
CCCCC(CC)CO (stereo not drawn) : inactive

* * *

- Read-out: Low-density lipoprotein receptor (LDLR), LDLR (gene 3949)
- Test name: BSK_CASM3C_LDLR: BioMAP Diversity Plus: CASM3C Assay for Low-density lipoprotein receptor (LDLR) Biomarker Activity (AID 2283045);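 also: LDLR protein level on the cell surface quantified by ELISA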
- Condition: primary human coronary artery smooth muscle cells; actives raise or lower the signal
Active and inactive are the calls of the source. The calls were made as follows: active = hit-call score of the fitted dose curve at least 0.9, where 1 is the maximum; inactive = score below 0.9.
Readout kind: AC50

O=NO : inactive
CCCCC(CC)CO (stereo not drawn) : inactive
O=C1CCCCC1 : inactive
C=CCCCCCCCCCCCC : inactive
CC(C)(C)c1ccccc1 : inactive

Can you share its AC50? I mean this compound: CC(COCC(C)OC(=O)c1ccccc1)OC(=O)c1ccccc1 (stereo not drawn)
inactive

Can you share its AC50? I mean this compound: O=C1NC(=O)C(c2ccccc2)(c2ccccc2)N1
inactive

Can you share its AC50? I mean this compound: O=C(O)CC(O)(CC(=O)O)C(=O)O
inactive

Can you share its AC50? I mean this compound: O=C(N[C@@H](c1ccccc1)[C@@H]1CCCCN1)c1cccc(C(F)(F)F)c1Cl
15.4 µM (active)

Can you share its AC50? I mean this compound: CCCCCCCCCC[N+](C)(C)[O-]
inactive

Can you share its AC50? I mean this compound: CN(C)CCCN1c2ccccc2Sc2ccc(Cl)cc21
5.41 µM (active)

Can you share its AC50? I mean this compound: CC(C)COC(=O)CCCCC(=O)OCC(C)C
inactive

Can you share its AC50? I mean this compound: c1ccc2occc2c1
inactive

Can you share its AC50? I mean this compound: C#CC(O)C(CC)CCCC (stereo not drawn)
inactive

Can you share its AC50? I mean this compound: Cc1ccc(-c2cc(C(F)(F)F)nn2-c2ccc(S(N)(=O)=O)cc2)cc1
22.5 µM (active)

Can you share its AC50? I mean this compound: CCOCCOCCO
inactive

* * *

- Test name: CCTE_Shafer_MEA_acute_interburst_interval_mean: CCTE's Neural Acute Assay for Mean Interburst Interval, Shafer Lab (AID 2284016);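 also: percent change of mean interburst interval versus each well's own pre-dose baseline; curves fitted for decrease in interburst interval relative to DMSO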
Active and inactive are the calls of the source. Rule for the calls: active = hit-call score of the fitted dose curve at least 0.9, where 1 is the maximum; inactive = score below 0.9.
Readout kind: AC50

Example entries begin here.
Oc1ccc(O)cc1 : 20 µM (active)
CN(C)C(=O)NC1(c2ccccc2)CCN(CC[C@@]2(c3ccc(F)c(F)c3)CN(C(=O)c3ccccc3)CCO2)CC1 : inactive
Nc1nc(=S)c2[nH]cnc2[nH]1 : inactive
NC(=Nc1ccccc1)Nc1ccccc1 : 1.27 µM (active)
Cc1ccc(-c2cc(C(F)(F)F)nn2-c2ccc(S(N)(=O)=O)cc2)cc1 : 5 µM (active)
OCC(CO)n1cnc(-c2ccc(F)cc2)c1-c1ccnc(Oc2ccccc2)n1 : inactive

Can you share its AC50? I mean this molecule: CCN(CC)CCOc1ccc(C(=C(Cl)c2ccccc2)c2ccccc2)cc1
inactive

* * *

- Test name: APR_HepG2_P-H2AX_24hr: Apredica 24-hour HepG2 Assay for H2AX Phosphorylation (AID 2282920)
- Condition: high-content imaging, actives raise or lower the signal
The source made the active and inactive calls. How the source made its calls: active means hit-call score of the fitted dose curve at least 0.9, where 1 is the maximum; inactive means score below 0.9.
Just give me one of these, please: Y = active, N = inactive

Sample answers from the record:
CCCCCCCCCC[N+](C)(C)[O-] : N
O=C(N[C@@H](c1ccccc1)[C@@H]1CCCCN1)c1cccc(C(F)(F)F)c1Cl : Y
CCc1nc(N)nc(N)c1-c1ccc(Cl)cc1 : N
C/C=C/C=C/C(=O)O : N
CN(C)CCCN(C)CCCN(C)C : N
O=C1OC(c2ccc(O)cc2)(c2ccc(O)cc2)c2ccccc21 : Y
Oc1ccc(O)cc1 : N
Cn1cnc2c1c(=O)[nH]c(=O)n2C : N

Please indicate how the test categorized C=CCc1ccc(OC)c(OC)c1 .
N

Please indicate how the test categorized CCC(C)N(C)C(=O)c1cc2ccccc2c(-c2ccccc2Cl)n1 (stereo unspecified) .
Y

Please indicate how the test categorized Cc1ccc(-c2cc(C(F)(F)F)nn2-c2ccc(S(N)(=O)=O)cc2)cc1 .
Y

Please indicate how the test categorized CCCCOC(=O)CCCCC(=O)OCCCC .
N

Please indicate how the test categorized N[C@@H](Cc1c[nH]c2ccccc12)C(=O)O .
N
